# EXPERIMENTAL_TARGET: SOS1 protein (Homo sapiens, UniProt Q07889)
# Sequence (Q07889 1-1333): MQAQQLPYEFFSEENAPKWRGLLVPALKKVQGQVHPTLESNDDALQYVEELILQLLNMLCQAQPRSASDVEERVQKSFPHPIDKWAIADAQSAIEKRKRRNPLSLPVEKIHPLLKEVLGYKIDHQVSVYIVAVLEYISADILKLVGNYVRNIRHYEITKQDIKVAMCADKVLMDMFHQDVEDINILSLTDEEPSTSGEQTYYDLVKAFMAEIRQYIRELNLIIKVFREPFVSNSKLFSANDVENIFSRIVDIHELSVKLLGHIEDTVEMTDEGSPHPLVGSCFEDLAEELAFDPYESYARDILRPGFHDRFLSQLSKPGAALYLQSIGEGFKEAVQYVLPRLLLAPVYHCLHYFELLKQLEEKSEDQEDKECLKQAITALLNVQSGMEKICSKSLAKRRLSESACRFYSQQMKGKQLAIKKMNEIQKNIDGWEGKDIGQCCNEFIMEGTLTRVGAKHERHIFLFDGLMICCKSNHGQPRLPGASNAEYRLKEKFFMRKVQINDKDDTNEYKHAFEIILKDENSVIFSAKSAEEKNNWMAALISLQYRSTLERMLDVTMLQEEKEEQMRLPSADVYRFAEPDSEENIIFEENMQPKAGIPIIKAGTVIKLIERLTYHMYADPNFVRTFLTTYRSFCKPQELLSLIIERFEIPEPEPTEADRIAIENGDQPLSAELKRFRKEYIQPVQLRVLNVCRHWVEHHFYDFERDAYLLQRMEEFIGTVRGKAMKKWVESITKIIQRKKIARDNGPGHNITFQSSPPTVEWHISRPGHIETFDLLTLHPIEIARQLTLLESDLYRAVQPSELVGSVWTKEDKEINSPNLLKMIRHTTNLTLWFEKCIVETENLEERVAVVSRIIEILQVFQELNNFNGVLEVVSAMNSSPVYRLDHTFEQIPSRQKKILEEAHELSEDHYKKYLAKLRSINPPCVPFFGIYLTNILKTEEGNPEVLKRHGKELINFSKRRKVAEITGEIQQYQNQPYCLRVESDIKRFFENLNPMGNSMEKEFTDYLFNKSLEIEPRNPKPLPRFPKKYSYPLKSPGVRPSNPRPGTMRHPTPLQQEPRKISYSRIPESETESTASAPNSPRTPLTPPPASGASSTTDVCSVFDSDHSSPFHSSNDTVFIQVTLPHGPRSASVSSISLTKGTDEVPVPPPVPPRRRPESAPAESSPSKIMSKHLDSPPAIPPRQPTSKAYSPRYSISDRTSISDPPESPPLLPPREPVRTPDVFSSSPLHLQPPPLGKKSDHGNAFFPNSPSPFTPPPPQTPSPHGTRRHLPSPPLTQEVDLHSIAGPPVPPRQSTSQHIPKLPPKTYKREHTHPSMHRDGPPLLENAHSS
# PROCEDURE_DETAILS: SOS1 degradation assay (Western blot), NCI-H358 cells
# Type: cell-based
# Design: The degradation of SOS1 by the compounds was investigated on KRAS G12C mutant human non-small cell lung cancer cells NCI-H358; host or cells: NCI-H358 (human cancer cell lines)
# MEASUREMENT_PARAMETERS: SOS1 degradation, NCI-H358 cells, 24 h, Western blot; read-out: NCI-H358 (G12C) DC50
# DC50 per entry

COMPOUND | DC50
COc1cc2nc(C)nc(N[C@H](C)c3cc(-c4c(Cl)cccc4CN(C)C)cs3)c2cc1[C@H]1CC[C@H](C(=O)N2CCN(CC3CCC4(CC3)CCN(C(=O)c3ccc(F)c(N5CCC(=O)NC5=O)c3)CC4)CC2)CC1 [Example 60] | < 50 nM
COc1cc2nc(C)nc(N[C@H](C)c3cc(-c4c(Cl)cccc4CN(C)C)cs3)c2cc1[C@H]1CC[C@H](C(=O)N2CCN(CCCOC3CCN(C(=O)c4ccc(Cl)c(N5CCC(=O)NC5=O)c4)CC3)CC2)CC1 [Example 68] | < 50 nM
COc1cc2nc(C)nc(N[C@H](C)c3cc(N)cc(C(F)(F)F)c3)c2cc1[C@H]1CC[C@H](C(=O)N(C)CCOCC#CC2CCN(C(=O)c3ccc(Cl)c(N4CCC(=O)NC4=O)c3)CC2)CC1 [Example 26] | 1000 to 10000 nM
CNCc1ccccc1-c1csc([C@@H](C)Nc2nc(C)nc3cc(OC)c([C@H]4CC[C@H](C(=O)N5CCN(CC6CCC7(CC6)CCN(C(=O)c6ccc(OC)c(N8CCC(=O)NC8=O)c6)CC7)CC5)CC4)cc23)c1 [Example 73] | < 50 nM
